# System: Fer (mouse)
# Assay: phosphorylation enrichment, bacterial display (enrichment ratio); higher = better substrate or ligand; peptides without Tyr show the background

Sequence code	phosphorylation enrichment
LLASRYDSPIN [ABLIM1_Y638]	0.607
FKDVTYLKEEK [UBE3A_Y127_T129K]	0.49
SSNLFYRCLTA [CNGA3_Y169_W171C_YF]	0.497

====

# System: FGFR3 (UniProt P22607)
# Sequence (P22607 whole entry, looked up): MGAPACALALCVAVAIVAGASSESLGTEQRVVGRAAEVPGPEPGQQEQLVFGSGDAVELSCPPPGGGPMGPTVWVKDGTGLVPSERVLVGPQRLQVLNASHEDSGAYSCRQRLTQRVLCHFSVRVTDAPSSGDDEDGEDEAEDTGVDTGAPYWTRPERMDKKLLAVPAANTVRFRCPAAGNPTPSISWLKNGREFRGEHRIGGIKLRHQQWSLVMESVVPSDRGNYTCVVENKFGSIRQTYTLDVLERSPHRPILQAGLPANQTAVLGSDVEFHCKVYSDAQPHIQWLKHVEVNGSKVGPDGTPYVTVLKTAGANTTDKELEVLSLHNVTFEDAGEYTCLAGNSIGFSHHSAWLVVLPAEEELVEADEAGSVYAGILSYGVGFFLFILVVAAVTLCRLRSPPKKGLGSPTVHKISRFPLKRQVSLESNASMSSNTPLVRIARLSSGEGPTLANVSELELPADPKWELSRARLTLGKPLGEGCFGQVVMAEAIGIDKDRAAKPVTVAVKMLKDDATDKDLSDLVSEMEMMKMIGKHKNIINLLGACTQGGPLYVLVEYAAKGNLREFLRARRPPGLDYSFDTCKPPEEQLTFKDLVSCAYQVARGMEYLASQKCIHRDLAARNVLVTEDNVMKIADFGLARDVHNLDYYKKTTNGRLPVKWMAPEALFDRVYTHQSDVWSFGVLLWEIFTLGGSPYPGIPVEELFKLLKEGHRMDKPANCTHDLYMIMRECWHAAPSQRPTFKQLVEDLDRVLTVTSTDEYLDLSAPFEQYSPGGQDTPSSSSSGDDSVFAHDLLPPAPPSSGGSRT
# Assay: phosphorylation enrichment, bacterial display (enrichment ratio); higher = better substrate or ligand; peptides without Tyr show the background
Entries are grouped by phosphorylation enrichment into these classes: c1 (below 0.6), c2 (0.6 to below 0.9), c3 (0.9 or more)

Sequence code	System	Class name
AQQPIYIRVEG [NLRP7_Y318_V319I]	FGFR3 (UniProt P22607)	c2
LHRAHYDLRHT [AHSG_Y314]	FGFR3 (UniProt P22607)	c3
LIHLHYIRKDF [BBS4_Y43_YF]	FGFR3 (UniProt P22607)	c3
EKIANYKEGTF [CLRN1_Y171_YF]	FGFR3 (UniProt P22607)	c1
TEAEPYFRSLR [NPHS1_Y1138_YF]	FGFR3 (UniProt P22607)	c2
DPEAAYTTRGG [EPHA3_Y779]	FGFR3 (UniProt P22607)	c1
KELALYDENWF [RPS19_Y48_P47L]	FGFR3 (UniProt P22607)	c3
SGTYQYIIAKF [FOXL2_Y83_I80T]	FGFR3 (UniProt P22607)	c3
KLIETCFSKNY [PLP1_Y50_Y50C]	FGFR3 (UniProt P22607)	c2
ADVLDYIKALN [HPRT1_Y81_L78V]	FGFR3 (UniProt P22607)	c2
CTTIHYNFRCN [TP53_Y234_M237R_YF]	FGFR3 (UniProt P22607)	c2
FISLIYTNFEV [GSTP1_Y109_A114V_YF]	FGFR3 (UniProt P22607)	c3
SAPPSYEETVA [LITAF_Y23]	FGFR3 (UniProt P22607)	c2
EWQQTYTYDSG [JUP_Y20]	FGFR3 (UniProt P22607)	c3
GRQGIYKENER [GPR143_Y231_T232K]	FGFR3 (UniProt P22607)	c1
NTGDFYDLFGG [PTPN11_Y63_YF]	FGFR3 (UniProt P22607)	c2
CTTIFYNFMCN [TP53_Y234_H233Y_YF]	FGFR3 (UniProt P22607)	c3
NTEGGYCCICA [CRELD1_Y328_R329C]	FGFR3 (UniProt P22607)	c2
VNRSGYTLIRK [ATP6V0A2_Y688]	FGFR3 (UniProt P22607)	c1
LSSVSYVGCSL [ADGRD1_Y571_I569V]	FGFR3 (UniProt P22607)	c3
ALIKAYVKAVA [SMN1_Y43_D44V]	FGFR3 (UniProt P22607)	c2
PPTFRYERGSR [INPPL1_Y663_YF]	FGFR3 (UniProt P22607)	c2
GQKTLYSFFSP [UNG_Y8]	FGFR3 (UniProt P22607)	c3
FTRNFYVQAVL [CYBA_Y88_R90Q_YF]	FGFR3 (UniProt P22607)	c2

====

# Test system: c-Src
# Assay: phosphorylation enrichment, bacterial display (enrichment ratio); higher = better substrate or ligand; peptides without Tyr show the background
Think of 0.8 as a floor: if phosphorylation enrichment stands on it or above, it is fulfilled; beneath it, not fulfilled.

Sequence code	Class name
LKVDVYRRSHK [FUT3_Y222_G223R]	not fulfilled
ENAGYYFRVSA	not fulfilled
ALIKAYVKAVA [SMN1_Y43_D44V]	not fulfilled
CTTIHYNFMCS [TP53_Y234_N239S_YF]	not fulfilled
AHAGEYGEEAL [HBA1_Y25_A27E]	not fulfilled
QFQEKYKQMEQ [HCN4_Y531_V534M_YF]	not fulfilled
GLSDLYVKIHL [SYT2_Y309_P308L]	not fulfilled
CEHRGHLFLAI [TEK_Y897_Y897H_YF]	not fulfilled
PLLEYYWDIFT [CDAN1_Y713_R714W]	fulfilled
SSVKPYRVFCD [FGB_Y266_YF]	not fulfilled
GNLQENLTRHV [TGFBR2_Y336_Y336N]	not fulfilled
EFQLPYFNTVP [BMPR1A_Y457_M460T_YF]	fulfilled
GKFRMYVAVWT [F13A1_Y161]	not fulfilled
GHEFIYVDPMQ [PDGFRA_Y574_YF]	fulfilled
IEDPYYGNDSD [ACP1_Y133]	fulfilled
RQSTLYSFFPK [MSH6_Y8]	fulfilled
RNESFYDTFST [EFCAB3_Y372]	fulfilled
PSSRDYKDNIK [PIGN_Y227_H229D]	not fulfilled
VMTLDYSKTVV [SETD2_Y770_V768L]	not fulfilled
VRFMAYTDEIF [F8_Y450_T454I]	not fulfilled

====

# System: SHP2-C SH2;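 further: peptide library displayed on the E. coli surface as eCPX fusions, selected cells deep-sequenced, score is each peptide's frequency after selection divided by its frequency in the input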
# Assay: SH2 binding enrichment of the phosphorylated peptide, bacterial display (enrichment ratio); higher = better substrate or ligand; peptides without Tyr show the background

Sequence code	SH2 binding enrichment
LVMFTYAIFGM [SCN1A_Y1684_I1683T]	0.762
IAINKYEVSLI [MYO7A_Y2136_G2137E]	0.981
YGAHKYHPLPV [OAT_Y55_N54K]	1.74
LRTAVHHEILI [CREBBP_Y1450_Y1450H]	0.756
ADVLDYIKALN [HPRT1_Y81_L78V]	0.869
ESMLRYEVYGG [STOX1_Y607]	0.554
ATHRSYDSDNP [MMUT_Y146_G145S]	0.509
FKIFLYTLNDN [FN1_Y1975_YF]	0.588
TEYIQYVRRKN [MAX_Y73_M74V]	0.64
NGTVSYAIVAG [CDH23_Y1672_T1671S]	46.5
THLARYSDELR [APOA1_Y190_P189R]	0.622
KLLLKYSFHDV [RNF213_Y4141]	1.04
EKAEVYRSENE [RIOK2_Y348_G349R]	0.653
QLPRGYISILV [BAG3_Y205_P209L]	0.682
LLREWYLQDPY [SIX3_Y225]	1.28
PQEVTYAQLDH [KIR3DL2_Y398]	8.91
ILGRYYETSSI [PAX2_Y73_G76S]	1.02
DENCFYTRAAS [RPS19_Y54_W52C]	3.23

====

# System: MERTK (UniProt Q12866)
# Sequence (Q12866 whole entry, looked up): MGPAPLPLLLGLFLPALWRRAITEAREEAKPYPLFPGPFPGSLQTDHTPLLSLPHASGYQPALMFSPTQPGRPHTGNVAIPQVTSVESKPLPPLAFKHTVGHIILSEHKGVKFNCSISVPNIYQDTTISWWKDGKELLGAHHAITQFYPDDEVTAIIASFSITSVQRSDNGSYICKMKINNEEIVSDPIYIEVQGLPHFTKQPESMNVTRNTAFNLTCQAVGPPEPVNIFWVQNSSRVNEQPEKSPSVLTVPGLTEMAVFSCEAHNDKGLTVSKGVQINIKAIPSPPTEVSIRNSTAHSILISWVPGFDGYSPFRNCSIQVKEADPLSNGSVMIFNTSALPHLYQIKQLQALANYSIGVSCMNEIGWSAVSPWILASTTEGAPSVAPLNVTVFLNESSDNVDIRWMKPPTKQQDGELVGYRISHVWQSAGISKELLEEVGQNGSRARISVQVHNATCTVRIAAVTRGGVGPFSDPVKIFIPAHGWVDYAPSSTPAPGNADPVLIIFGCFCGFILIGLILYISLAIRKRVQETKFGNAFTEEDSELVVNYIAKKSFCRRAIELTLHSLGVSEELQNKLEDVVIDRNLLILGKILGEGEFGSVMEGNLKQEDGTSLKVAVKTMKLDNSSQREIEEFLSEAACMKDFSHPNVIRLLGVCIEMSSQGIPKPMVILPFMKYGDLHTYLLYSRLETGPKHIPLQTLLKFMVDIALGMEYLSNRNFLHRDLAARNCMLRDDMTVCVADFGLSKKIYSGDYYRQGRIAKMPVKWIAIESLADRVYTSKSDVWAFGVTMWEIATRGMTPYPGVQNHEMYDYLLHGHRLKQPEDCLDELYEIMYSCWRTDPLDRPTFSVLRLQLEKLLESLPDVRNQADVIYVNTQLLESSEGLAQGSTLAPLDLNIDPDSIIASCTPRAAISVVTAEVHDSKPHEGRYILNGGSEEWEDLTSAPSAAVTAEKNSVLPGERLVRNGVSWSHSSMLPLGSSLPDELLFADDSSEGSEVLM
# Assay: phosphorylation enrichment, bacterial display (enrichment ratio); higher = better substrate or ligand; peptides without Tyr show the background
Think of 0.6 as a floor: if phosphorylation enrichment stands on it or above, it is TRUE; beneath it, FALSE.

Sequence code	Class name
PLDVEYFTLQI [TP53_Y327_G325V]	FALSE
VFFDLYGGEKF [PTPN11_Y66_D61V_YF]	FALSE
RRYLYYYSYLL [PTEN_Y177_V175L]	TRUE
KRLDGYVLEGW [IGSF9_Y656_R661W]	FALSE
TEGNGYISFNE [LCP1_Y28_D24E]	FALSE
RQQQDYWLMDV [ANPEP_Y600_I603M]	TRUE
AFRRGYFDEEM [PLEC_Y2971_YF]	FALSE
PQGVRYIFTID [DCX_Y103_YF]	TRUE
LKYAIYFEVRE [LAMA2_Y1258_A1261V]	TRUE
LRGEDCGFSVD [PRKCI_Y430_Y430C]	TRUE
FVPSNYVAEDR [FRK_Y104_I100V_YF]	FALSE
RLPINYTTRRI [LAMA2_Y2894_G2889R]	TRUE
NTTIHYNFMCN [TP53_Y234_C229N_YF]	FALSE
EPSLVYMVTKI [CPS1_Y768_D767V]	FALSE
KDHPDYEYQPR [SOX9_Y172_K173E]	FALSE
RMSQRYGDVLQ [CYP1A2_Y72]	FALSE
VGTTAYMAPEA [IRAK4_Y354]	FALSE
AEPPDYSPVTQ [ADGRG2_Y285_H290Q]	FALSE
FISLIYTNFEV [GSTP1_Y109_A114V_YF]	TRUE
YSGIYYKPESL [L2HGDH_Y103_H98Y]	TRUE
FKIFLYTLNDN [FN1_Y1975_YF]	FALSE

====

# Tested on: c-Abl (mouse)
# Assay: phosphorylation enrichment, bacterial display (enrichment ratio); higher = better substrate or ligand; peptides without Tyr show the background
Quick list: phosphorylation enrichment per entry.
Assay metric: phosphorylation enrichment

Sequence code	Endpoint result
MSGDVYSTDYY [NTRK2_Y702_R699G]	0.784
FCRHNYGVVES [HLA-DRB1_Y112_YF]	0.545
LARDMHDKEYY [MET_Y1230_Y1230H]	0.395
FAELVYTSFWH [ASS1_Y322_G324S]	14
KRAIGYYSATS [FAM120A_Y327]	0.437
ESSKAYERDLS [TTC37_Y1074_A1077D]	0.533
SVVVPYQPPEV [TP53_Y220_E221Q]	1.51
